This section presents compounds with their documented Fibrin % cell toxicity values.
system: primary rat microglia; assay: Cell toxicity (dead cells, size <150 μm2) in coated fibrin (cFib) assay; conditions: primary microglia HTS, fibrin stimulation, toxicity = cell size <150 μm2;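 also: share of dead cells sized under 150 µm2 at 10 µM in fibrin-stimulated microglia HTS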
// note: answer is a bare numeric in %

CC/C=C\C/C=C\C/C=C\C/C=C\C/C=C\CCCC(=O)OCC [Icosapent ethyl]    0
CC[C@@H](C(N)=O)N1CCCC1=O [Levetiracetam]    1
FC(F)(F)COCC(F)(F)F [Flurothyl]    1
Nc1ccn([C@@H]2O[C@H](CO)[C@@H](O)C2(F)F)c(=O)n1 [Gemcitabine]    1
O=C(c1ccccc1)c1ccc2n1CCC2C(=O)O (stereo not shown) [Ketorolac]    0
CC[C@H](c1ccc(O)cc1)[C@@H](CC)c1ccc(O)cc1 [Hexestrol]    1

Then this compound:
(Q) Give Fibrin % cell toxicity (primary rat microglia) of the following compound: O=C(O)c1ccccc1OP(=O)(O)O [Fosfosal]
(A) 0

* * *

tested on: primary rat microglia; assay: Cell toxicity (dead cells, size <150 μm2) in coated fibrin (cFib) assay; settings: primary microglia HTS, fibrin assay, dead cells (size <150 μm2), compounds at 10 μM;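 also: share of dead cells sized under 150 µm2 at 10 µM in fibrin-stimulated microglia HTS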
Structures can show the parent of a compound that is named as a salt.
# reported Fibrin % cell toxicity; entries follow
All answers are understood in %, so give the number only.

Worked examples, 2 compounds total:
Oc1ccc(Cl)cc1Cc1cc(Cl)ccc1O [Dichlorophene, Dichlorophen]    1
Cc1nc(-c2ccc(OCC(C)C)c(C#N)c2)sc1C(=O)O [Febuxostat]    1

(Q) Form field: reported Fibrin % cell toxicity of C[C@]12CC[C@@H]3c4ccc(OC(=O)c5ccccc5)cc4CC[C@H]3[C@@H]1CC[C@@H]2O [Estradiol Benzoate]
(A) 1

(Q) Fill in: Fibrin % cell toxicity of CN1CCN(c2cc3c(cc2F)c(=O)c(C(=O)O)cn3-c2ccc(F)cc2)CC1 [Difloxacin Hydrochloride] is ___
(A) 1

(Q) Requested read-out: Fibrin % cell toxicity. Entry: CCOP(=S)(OCC)Oc1cc(C)nc(C(C)C)n1 [Diazinon, Dimpylate]
(A) 1

* * *

test system: primary rat microglia; experiment: Cell toxicity (dead cells, size <150 μm2) in coated fibrin (cFib) assay; conditions: primary microglia HTS, fibrin stimulation, toxicity = cell size <150 μm2;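 also: share of dead cells sized under 150 µm2 at 10 µM in fibrin-stimulated microglia HTS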
Where a name gives a salt, the structure may show the parent alone.
Recorded Fibrin % cell toxicity, one value per entry.
Just the number please, in %, no unit attached.

Worked examples, 2 compounds total:
C[N+]1(C)[C@@H]2CC[C@H]1C[C@@H](OC(=O)C(O)c1ccccc1)C2 (stereo partly shown) [Homatropine Methylbromide]    1
C=COCC(F)(F)F    0

(Q) Query (compound): N=C(N)N/N=C/c1c(Cl)cccc1Cl [Guanabenz] ; field requested: Fibrin % cell toxicity
(A) 1

(Q) Form field: reported Fibrin % cell toxicity of CC[N+](CC)(CC)CCOc1cccc(OCC[N+](CC)(CC)CC)c1OCC[N+](CC)(CC)CC [Gallamine Triethiodide]
(A) 1

(Q) Value lookup for Fibrin % cell toxicity; key = NNC(=O)c1ccncc1
(A) 1

(Q) Look at this compound and give its reported Fibrin % cell toxicity. Nc1nc2ncc(CNc3ccc(C(=O)N[C@@H](CCC(=O)O)C(=O)O)cc3)nc2c(=O)[nH]1
(A) 1

(Q) Returns the measured Fibrin % cell toxicity for the input compound. Input: CC(C(=O)O)c1ccc(-c2ccccc2)c(F)c1 (stereo not shown)
(A) 0

(Q) Request the reported Fibrin % cell toxicity associated with OC[C@H]1O[C@@H](n2cnc3c(O)ncnc32)[C@H](O)[C@@H]1O
(A) 1

(Q) I am curious: what Fibrin % cell toxicity value has been reported for CC1(C)O[C@@H]2C[C@H]3[C@@H]4C[C@H](F)C5=CC(=O)C=C[C@]5(C)[C@@]4(F)[C@@H](O)C[C@]3(C)[C@]2(C(=O)CO)O1 [Fluocinolone acetonide, reference compound] ?
(A) 1

(Q) Endpoint output: Fibrin % cell toxicity of Oc1c(Cl)cc(Cl)c(Cl)c1Cc1c(O)c(Cl)cc(Cl)c1Cl . Value?
(A) 0

(Q) Consider the compound shown here: CCNC(=O)[C@@H]1CCCN1C(=O)[C@H](CCCNC(=N)N)NC(=O)[C@H](CC(C)C)NC(=O)[C@@H](CC(C)C)NC(=O)[C@H](Cc1ccc(O)cc1)NC(=O)[C@H](CO)NC(=O)[C@H](Cc1c[nH]c2ccccc12)NC(=O)[C@H](Cc1c[nH]cn1)NC(=O)[C@@H]1CCC(=O)N1 [Leuprolide] What is its recorded Fibrin % cell toxicity?
(A) 1

(Q) Form field: reported Fibrin % cell toxicity of CCCCCN(CCCCC)C(=O)C(CCC(=O)O)NC(=O)c1ccc(Cl)c(Cl)c1 (stereo not shown) [Lorglumide Sodium]
(A) 1

(Q) Which Fibrin % cell toxicity is listed for CC(COc1ccccc1)NC(C)C(O)c1ccc(O)cc1 (stereo not shown) [Isoxsuprine Hydrochloride] ?
(A) 0

(Q) Form field: reported Fibrin % cell toxicity of CC(C)OC(=O)CCC/C=C\C[C@@H]1[C@@H](CC[C@@H](O)CCc2ccccc2)[C@H](O)C[C@@H]1O
(A) 1

(Q) # Fibrin % cell toxicity lookup, item CCC(=O)O[C@H](CC(=O)O)C[N+](C)(C)C [Levocarnitine Propionate Hydrochloride]
(A) 1

(Q) I have this compound here, CCOC(=O)Nc1nc2ccccc2[nH]1 , and I need its recorded Fibrin % cell toxicity.
(A) 0

(Q) Name the recorded Fibrin % cell toxicity for CS(=O)(=O)c1ccc([C@@H](O)[C@@H](CF)NC(=O)C(Cl)Cl)cc1 .
(A) 1

(Q) Item C1N2CN3CN1CN(C2)C3 has what recorded Fibrin % cell toxicity?
(A) 1

(Q) Value lookup for Fibrin % cell toxicity; key = O=C(O)c1nn(Cc2ccc(Cl)cc2Cl)c2ccccc12
(A) 1

(Q) I'd like to know its Fibrin % cell toxicity. The compound in question is CO/N=C1\CN(c2nc3c(cc2F)c(=O)c(C(=O)O)cn3C2CC2)CC1CN (stereo not shown)
(A) 0

(Q) Consider the compound shown here: Nc1nc2c(c(=O)[nH]1)N(C=O)C(CNc1ccc(C(=O)N[C@@H](CCC(=O)O)C(=O)O)cc1)CN2 (stereo partly shown) What is its recorded Fibrin % cell toxicity?
(A) 1

(Q) # input compound: Cc1ccc(S(=O)(=O)NC(=O)NN2CC3CCCC3C2)cc1 (stereo not shown) [Gliclazide] ; wanted: its Fibrin % cell toxicity
(A) 1

(Q) What value of Fibrin % cell toxicity has been recorded for this entry: Nc1nc(N)nc(-c2cc(Cl)ccc2Cl)n1 [Irsogladine Maleate]
(A) 1

(Q) So what does the record say about Fibrin % cell toxicity for COc1ccc(C(=O)NCc2ccc(OCCN(C)C)cc2)cc1OC [Itopride, Itopride Hydrochloride] ?
(A) 0

(Q) So what's the measured Fibrin % cell toxicity for this one? N#Cc1nn(-c2c(Cl)cc(C(F)(F)F)cc2Cl)c(N)c1[S+]([O-])C(F)(F)F (stereo not shown)
(A) 1
